study.system: T1, Caspase-2 (UniProt P42575 170-452, limits assumed)
T1 sequence (looked up): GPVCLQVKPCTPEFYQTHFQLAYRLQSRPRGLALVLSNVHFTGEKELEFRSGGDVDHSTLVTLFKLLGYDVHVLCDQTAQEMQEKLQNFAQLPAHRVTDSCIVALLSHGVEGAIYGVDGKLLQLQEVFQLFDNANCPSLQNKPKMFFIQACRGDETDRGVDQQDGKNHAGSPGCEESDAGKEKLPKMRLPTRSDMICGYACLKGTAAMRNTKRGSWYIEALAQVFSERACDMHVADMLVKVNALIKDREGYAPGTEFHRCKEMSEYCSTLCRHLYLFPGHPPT
protocol.details: cell-based or functional assay
Numbered stars: 1 amine (or outer) side, 2 acyl side, 3 side chain; on linkers, the order of the positions; unused ones are H or OH. Square brackets hold non-standard residues; d marks the D form. * marks the point of attachment. AAsp = aza-Asp, O=C(N(CC(=O)[*:3])N[*:1])[*:2]; CH═CH‑COOCH2Ph = O=C(/C=C/*)OCc1ccccc1; Cbz = O=C(OCc1ccccc1)*
property.measured: k2 (M⁻¹ s⁻¹)

binder="Cbz-LET[AAsp]-{CH═CH‑CONHCH2CH2Ph} [Cbz-Leu-Glu-Thr-AAsp-CH═CH-CONHCH2CH2Ph]" test_value=110

(A) Cbz-LET[AAsp]-{CH═CH‑CONHCH2Ph} [Cbz-Leu-Glu-Thr-AAsp-CH═CH-CONHCH2Ph]
(B) Cbz-LET[AAsp]-{CH═CH‑COOCH2Ph} (SMILES CC(C)C[C@H](NC(=O)OCc1ccccc1)C(=O)N[C@@H](CCC(=O)O)C(=O)N[C@H](C(=O)NN(CC(=O)O)C(=O)/C=C/C(=O)OCc1ccccc1)[C@@H](C)O) [Cbz-Leu-Glu-Thr-AAsp-CH═CH-COOCH2Ph]
Request: Field: lower k2 | Options: A / B Choose, then provide that item's label.
Response: A
(A: 66 M⁻¹ s⁻¹, B: 480 M⁻¹ s⁻¹)

Source: patent US20050256058A1
